Molecular target: S. pyogenes SKKanGAS, kanamycin survival, BacTiterGlo, 6 h
Assay: S. pyogenes SKKanGAS kanamycin growth inhibitors – SKKanGAS strain, luminescence, dose confirmation, streptokinase promoter inhibitor project, dose response (AID 1902);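 also: lower survival reflects blocked streptokinase promoter driving kanamycin resistance gene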
Listed next: entries and their corresponding pEC50.
Note on pEC50: it is the negative log10 of concentration, concentration in mol/L.

| Compound | Target Desc | pEC50 |
| --- | --- | --- |
| FC(F)(F)c1cc(-c2ccccc2)nc(N2CCCCCC2)n1 | S. pyogenes SKKanGAS, kanamycin survival, BacTiterGlo, 6 h | 5.41 |
| CC(C)=CCC12Oc3cc(O)ccc3C1(O)Oc1cc3c(c(O)c1C2=O)C=CC(C)(C)O3 (stereo unspecified) | S. pyogenes SKKanGAS, kanamycin survival, BacTiterGlo, 6 h | 5.62 |
| FC(F)(F)c1cccc(CNC2c3ccccc3-c3ccccc32)c1 | S. pyogenes SKKanGAS, kanamycin survival, BacTiterGlo, 6 h | 5.18 |

For record COc1cc([N+](=O)[O-])cc(/C=N\NC(=O)C2COc3ccccc3O2)c1O (stereo unspecified) the listed pEC50 is 5.44

Briefly, pEC50 measured for CC1(C)Cc2c(cnn2-c2ccccc2)-c2c1c1ccccc1n2CC(O)CCl (stereo unspecified) : 5.28

The value of pEC50 measured for the compound OC(CNCc1ccco1)Cn1c2ccc(Br)cc2c2cc(Br)ccc21 (stereo unspecified) turned out to be 5.23

pEC50 recorded for this compound, CCC(Oc1ccccc1)C(=O)Nc1ccccc1N1CCCCC1 (stereo unspecified) , is 5.48

Entry Cc1nc(NC(=O)c2ccc(Cl)cc2)sc1-c1csc(Nc2cccc(F)c2)n1 ; pEC50 = 5.57

response.value for Cc1ccc(NC(=O)C(OC(=O)c2ccc(NC(N)=O)cc2)c2ccccc2)cc1Cl (stereo unspecified) (field: pEC50) = 5.19

Briefly, pEC50 measured for COC(=O)c1ccc(N2CCC(c3cc(-c4ccc(OC)cc4)n[nH]3)CC2)c([N+](=O)[O-])c1 : 5.67

Given item CCCOc1ccc(/C=C/c2c([N+](=O)[O-])c(=O)n(C)c(=O)n2C)cc1 , the value recorded as its pEC50 is 5.15

Form: compound = COC(=O)[C@@H]1[C@@H](C#N)C2(c3ccccc3-c3ccccc32)N(c2ccc(Cl)cc2)N1C#N ; pEC50 = 5.01

Notebook: CCCc1sc(N/N=C/c2ccccn2)nc1-c1ccc(Br)cc1 , pEC50 read as 6.62

Reported pEC50 ( COc1cnc(-c2ccccn2)nc1Oc1c(C)cccc1C ) = 6.69

Consider COc1ccc(/C=C/C(=O)NC(=S)NNC(=O)c2ccco2)cc1OC . Its measured pEC50 is 5.39

The value of pEC50 measured for the compound CCN1C(=O)C(CC(=O)Nc2ccc(Br)cc2)N(CCCc2ccccc2)C1=S (stereo unspecified) turned out to be 5.54

Value of pEC50 reported for the compound CN(C)/C=C1\SC(=S)N(c2ccc(Br)cc2)C1=O is 5.27

Noted for CC(C)Cn1c(=O)c(C(=O)N/N=C/c2cccc(F)c2)c(O)c2ccccc21 : its pEC50 reads 5.74

====

Molecular target: S. pyogenes SKKanGAS, kanamycin survival, BacTiterGlo, 6 h
Assay: S. pyogenes SKKanGAS kanamycin growth inhibitors – SKKanGAS strain, luminescence, dose confirmation, streptokinase promoter inhibitor project, dose response (AID 1902);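 also: lower survival reflects blocked streptokinase promoter driving kanamycin resistance gene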
Active and inactive are the calls of the source.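 The calls were made as follows: active = EC50 no more than a set limit of log units above the highest dose; inactive = the rest.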
Return exactly one item of YES = active, NO = inactive

Reference set (5 entries):
| Molecule | Group Label |
| --- | --- |
| Fc1ccccc1CNc1ccc(Cl)c(Cl)c1 | YES |
| CC(/C=C1\SC(=S)N(NS(=O)(=O)c2ccc(C)cc2)C1=O)=C\c1ccccc1 | YES |
| O=C(CNC(=O)c1ccco1)NCc1nc2ccccc2[nH]1 | NO |
| COc1ccc(NC(=O)c2cc(-c3cc(C)cc(C)c3O)n[nH]2)cc1Cl | YES |
| FC(F)(F)c1cccc(NC(=S)Nc2ccc(Cl)cc2Cl)c1 | YES |

Problem: Tell me the recorded outcome of this test for C/C(=N\NC(=O)c1cccc(Br)c1)c1ccccn1 .
Result: YES

Problem: Short answer needed: outcome of this test for CC(C)COC(=O)c1cccc2c1-c1ccccc1/C2=N\O ?
Result: YES

Problem: What did this assay record as the result for Cc1cccc(N=Nc2c(C)nn(-c3ccccc3)c2N)c1C ?
Result: YES

Problem: Give the logged outcome of this assay for the following molecule: CCCOc1ccc(C(=O)NC(=S)NNC(=O)c2c(-c3ccccc3)noc2C)cc1
Result: YES

Problem: What call does the record list for O=C(Cc1ccccc1)N/N=C/c1ccccn1 ?
Result: NO

Problem: Please state the recorded outcome for this molecule: O=C1c2cccc3c([N+](=O)[O-])ccc(c23)C(=O)N1O
Result: YES

Problem: Identify the outcome logged in this assay for the molecule shown: COc1cc(/C=N\NC(=O)c2ccc(Cn3cc(Br)c([N+](=O)[O-])n3)o2)cc(OC)c1O
Result: YES

Problem: Outcome? CCCCc1ccc(NC(=O)NCc2ccccn2)cc1
Result: NO

Problem: So what was the verdict on CCOc1ccc(-n2c(O)c(/C=N/NC(=O)C3COc4ccccc4O3)c3ccccc3c2=O)cc1 (configuration not stated) in this test?
Result: YES

Origin of values: PubChem BioAssay AID1902
